System: RAW-Dual (murine macrophage reporter line)
Assay: IRF reporter (Lucia luciferase) activity fold change vs agonist alone; higher = enhanced IRF activity
Conditions: modulator concentration 10 µM; agonist: 3'3'-cGAMP 10 ug/mL
Listed molecules paired with reported IRF reporter
MEASURED ENDPOINT: IRF reporter

MOLECULE | EXPERIMENTAL TARGET | MEASURED ENDPOINT | OBSERVED
CC(=O)C1CCC2C3CC=C4CC(O)CCC4(C)C3CCC12C (configuration not stated) | RAW-Dual (murine macrophage reporter line) | IRF reporter | 0.887
Cc1c(-c2ccccc2)nc2ccccc2c1C(=O)N1CCCC1 | RAW-Dual (murine macrophage reporter line) | IRF reporter | 1.01
CN1C(C(=O)Nc2ccccn2)=C(O)c2sc(Cl)cc2S1(=O)=O | RAW-Dual (murine macrophage reporter line) | IRF reporter | 0.955
O=c1[nH]cnc2scc(-c3ccc(Br)cc3)c12 | RAW-Dual (murine macrophage reporter line) | IRF reporter | 1.14
Cc1[nH]nc(-c2ccc(OCc3ccccc3)c(C)c2O)c1-c1cnn(-c2ccccc2)c1 | RAW-Dual (murine macrophage reporter line) | IRF reporter | 0.95
O=C(O)CCCN1CCC(O[C@@H](c2ccc(Cl)cc2)c2ccccn2)CC1.O=S(=O)(O)c1ccccc1 | RAW-Dual (murine macrophage reporter line) | IRF reporter | 0.995
NC(=O)c1ncn([C@@H]2O[C@H](CO)[C@@H](O)[C@H]2O)n1 | RAW-Dual (murine macrophage reporter line) | IRF reporter | 1.16

* * *

Measured NF-kB reporter by item
Test system: RAW-Dual (murine macrophage reporter line)
Assay: NF-kB reporter (SEAP) activity fold change vs agonist alone; higher = enhanced NF-kB activity
Conditions: modulator concentration 10 µM; agonist: LPS 0.1 ug/mL

COMPOUND STRUCTURE | NF-kB reporter
CNC(=O)C(=O)Nc1cc(Cl)ccc1C | 1
NCCCC[C@H](N[C@@H](CCc1ccccc1)C(=O)O)C(=O)N1CCC[C@H]1C(=O)O | 0.997
CCOc1ccc(C(=O)NCc2cccnc2)cc1Br | 1.06
CCCCOc1cc(C(=O)NCCN(CC)CC)c2ccccc2n1.Cl | 1.04
Clc1ccc2c(c1)C(N1CCNCC1)=Nc1ccccc1O2 | 1.02
CN1CCN(C(=O)C(C)(c2ccccc2)c2ccccc2)CC1 | 1.1
CC(C)CNC(=O)C(=O)Nc1ccc(C(C)C)cc1 | 0.931
O=S(=O)(c1ccc(F)cc1)N1CCC(c2nc3ccccc3[nH]2)CC1 | 1.08
NCC(O)(c1ccc(Cl)cc1)c1ccc(Cl)cc1 | 1.12

* * *

Tested on: RAW-Dual (murine macrophage reporter line)
Assay: NF-kB reporter (SEAP) activity fold change vs agonist alone; higher = enhanced NF-kB activity
Conditions: modulator concentration 10 µM; agonist: CpG ODN 1826 0.5 ug/mL
Entries annotated with measured NF-kB reporter
MEASURED ENDPOINT: NF-kB reporter

COMPOUND | OBSERVED
CC(C)(C)C1CCc2c(sc(NC(=O)c3ccc(Cl)cc3)c2C(N)=O)C1 (stereo unspecified) | 1.02
Nc1ccn(C2OC(CO)C(O)C2O)c(=O)n1 (stereo unspecified) | 1
C=CCn1c(S)nnc1-c1cc(OC)c(OC)c(OC)c1 | 0.986
COc1ccc(Cc2nnc(C3CCN(S(C)(=O)=O)CC3)s2)cc1 | 0.978
Cc1c(C)c2c(c(C)c1O)CCC(C)(CCCC(C)CCCC(C)CCCC(C)C)O2 (stereo unspecified) | 1.02
COC(=O)C1=CN(CC2CCCO2)C=C(C(=O)OC)C1c1ccc(Cl)cc1 (stereo unspecified) | 0.999

Reference for the values: the supplement of paper PMC10646978
